// reported melting point per item

COc1cccc(-n2nc(S(=O)(=O)c3ccccc3)c3cc(N4CCNCC4)ccc32)c1 [Example 36]; 132 to 135 °C

From here, focus on the item given below.
Prompt: # melting point lookup, item CN1CCN(c2ccc3[nH]nc(S(=O)(=O)c4cccc(F)c4)c3c2)CC1 [Example 19]
Completion: > 250 °C

###

- ASSAY TARGET: human cloned 5-HT6 receptors (Homo sapiens)
- Construct: expressed in transfected cells; host or cells: HeLa cells (membrane preparation)
- Sequence (P50406 whole entry): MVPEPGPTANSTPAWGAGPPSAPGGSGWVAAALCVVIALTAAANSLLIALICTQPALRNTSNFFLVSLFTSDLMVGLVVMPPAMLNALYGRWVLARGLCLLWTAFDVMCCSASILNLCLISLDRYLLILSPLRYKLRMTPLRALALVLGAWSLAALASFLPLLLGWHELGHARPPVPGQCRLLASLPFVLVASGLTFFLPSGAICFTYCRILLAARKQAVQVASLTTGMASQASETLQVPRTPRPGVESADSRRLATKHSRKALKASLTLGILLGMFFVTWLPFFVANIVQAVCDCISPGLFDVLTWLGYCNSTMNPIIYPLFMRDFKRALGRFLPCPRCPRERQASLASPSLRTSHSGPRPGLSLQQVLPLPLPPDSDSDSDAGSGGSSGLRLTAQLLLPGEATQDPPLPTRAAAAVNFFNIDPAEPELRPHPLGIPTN
- METHOD DESCRIPTION: 5-HT6 binding affinity, [3H]-LSD displacement on membranes of Hela cells expressing human cloned 5-HT6 receptors
- EXPERIMENTAL CONDITIONS: [3H]-LSD 3.0 nM, Hela cell membranes, 120 min at room temperature; read-out: 5-HT6 Binding Ki
pKi: −log10 of the molar value.
We use 8 as the dividing line for pKi: on or above the line is YES, below is NO.

Solved cases below.
CC(C)n1nc(S(=O)(=O)c2cccc3ccccc23)c2cc(N3CCN(C)CC3)ccc21; YES
CN1CCN(c2ccc3[nH]nc(S(=O)(=O)c4ccc(Cl)s4)c3c2)CC1 [Example 70]; YES

# next compound below
Prompt: State whether the measured pKi reaches 8, counting equality as reaching it, for `CN1CCN(c2ccc3[nH]nc(S(=O)(=O)c4ccc(F)cc4)c3c2)CC1`
Completion: YES
